- Test system: IκBα phosphorylation in HepG2 cells
- test: Detection of phosphorylated IκBα by Western blot method under TNFα stimulation
- Type: cell-based
- conditions: Drug Concentration 2 μg/ml, 40 ng/ml human TNFα, 20 μM MG-132
- Protocol: Detection of Phosphorylated IκBα by Western Blot Method […] After 45 minutes, 40 ng/ml of human TNFα was further added. Ten minutes after the addition of the TNFα, the cells were collected, and a cell lysate was prepared by using a tip-type ultrasonic processor (Dr.Hielsher; UP-50H). […]
property name: Inhibition Ratio of I κ B phosphorylation(%)
Express it in %; write the number only.

Problem: Tell me the measured Inhibition Ratio of I κ B phosphorylation(%) of CC(C)(C)c1nc(NC(=O)c2cc(Br)ccc2O)sc1N1CCOCC1 [compound 199] , please.
Result: 47.9

Problem: Request the reported Inhibition Ratio of I κ B phosphorylation(%) associated with CC(C)(C)C(=O)c1sc(NC(=O)c2cc(Cl)ccc2O)nc1C(C)(C)C [compound 195]
Result: 63.5

Problem: Any idea what its Inhibition Ratio of I κ B phosphorylation(%) is? The compound is CC(C)(C)c1nc(NC(=O)c2cc(Br)ccc2O)sc1N1CCN(c2ccccc2)CC1 [compound 201]
Result: 57.4

Problem: Recorded Inhibition Ratio of I κ B phosphorylation(%) of O=C(Nc1cc(C(F)(F)F)cc(C(F)(F)F)c1)c1cc(-c2ccccc2)ccc1O [Compound No. 67] , please.
Result: 43.8

Problem: # get_value(readout='Inhibition Ratio of I κ B phosphorylation(%)', item= O=C(Nc1cc(C(F)(F)F)cc(C(F)(F)F)c1)c1cc(-n2cccc2)ccc1O [Compound No. 71] )
Result: 29.5

Problem: Report Inhibition Ratio of I κ B phosphorylation(%) for O=C(Nc1cc(C(F)(F)F)cc(C(F)(F)F)c1)c1cc(Cl)ccc1O [Compound No. 50] please.
Result: 43.0

Problem: Consider the compound shown here: CC(C)(C)c1ccc(O)c(C(=O)Nc2cc(C(F)(F)F)cc(C(F)(F)F)c2)c1 [Compound No. 56] What is its recorded Inhibition Ratio of I κ B phosphorylation(%)?
Result: 31.3
